Property: AIRE transcriptional activation functional score; scope: individual variants
B1: library; numbered along this chain (parent)
chain: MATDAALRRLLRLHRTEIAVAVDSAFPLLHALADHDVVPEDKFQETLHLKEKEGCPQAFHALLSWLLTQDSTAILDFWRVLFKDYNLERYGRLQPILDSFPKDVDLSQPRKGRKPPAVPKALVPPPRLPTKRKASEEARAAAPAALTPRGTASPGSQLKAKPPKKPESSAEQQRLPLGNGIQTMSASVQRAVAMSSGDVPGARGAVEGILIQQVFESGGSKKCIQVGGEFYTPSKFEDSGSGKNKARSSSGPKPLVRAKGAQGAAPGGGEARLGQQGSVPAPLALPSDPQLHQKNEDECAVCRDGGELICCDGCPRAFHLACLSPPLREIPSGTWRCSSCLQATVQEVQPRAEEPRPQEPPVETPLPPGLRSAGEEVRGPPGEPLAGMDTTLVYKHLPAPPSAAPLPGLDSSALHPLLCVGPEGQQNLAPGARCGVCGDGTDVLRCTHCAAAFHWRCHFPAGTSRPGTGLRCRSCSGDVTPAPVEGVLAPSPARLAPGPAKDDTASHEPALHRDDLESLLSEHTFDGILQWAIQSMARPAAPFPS

variants of: B1; assay: AIRE transcriptional activation functional score (insulin promoter-GFP; nonsense median 0, synonymous median 1) (normalised score); higher = higher AIRE activity (more reporter activation); settings: with insulin promoter-GFP reporter in HEK293
Please give only the number in your answer, with no unit.

{"change": "L323R", "measured_value": 1.15}
{"change": "A493W", "measured_value": 0.996}
{"change": "K114S", "measured_value": 0.787}
{"change": "C337R", "measured_value": 1.12}
{"change": "L106W", "measured_value": 0.739}

Field AIRE transcriptional activation functional score (entry P125I ) reads 1.36

// S71A : AIRE transcriptional activation functional score value = 1.08
